MEASURED TARGET: EPHB1 (UniProt P54762)
Sequence (P54762 whole entry, looked up): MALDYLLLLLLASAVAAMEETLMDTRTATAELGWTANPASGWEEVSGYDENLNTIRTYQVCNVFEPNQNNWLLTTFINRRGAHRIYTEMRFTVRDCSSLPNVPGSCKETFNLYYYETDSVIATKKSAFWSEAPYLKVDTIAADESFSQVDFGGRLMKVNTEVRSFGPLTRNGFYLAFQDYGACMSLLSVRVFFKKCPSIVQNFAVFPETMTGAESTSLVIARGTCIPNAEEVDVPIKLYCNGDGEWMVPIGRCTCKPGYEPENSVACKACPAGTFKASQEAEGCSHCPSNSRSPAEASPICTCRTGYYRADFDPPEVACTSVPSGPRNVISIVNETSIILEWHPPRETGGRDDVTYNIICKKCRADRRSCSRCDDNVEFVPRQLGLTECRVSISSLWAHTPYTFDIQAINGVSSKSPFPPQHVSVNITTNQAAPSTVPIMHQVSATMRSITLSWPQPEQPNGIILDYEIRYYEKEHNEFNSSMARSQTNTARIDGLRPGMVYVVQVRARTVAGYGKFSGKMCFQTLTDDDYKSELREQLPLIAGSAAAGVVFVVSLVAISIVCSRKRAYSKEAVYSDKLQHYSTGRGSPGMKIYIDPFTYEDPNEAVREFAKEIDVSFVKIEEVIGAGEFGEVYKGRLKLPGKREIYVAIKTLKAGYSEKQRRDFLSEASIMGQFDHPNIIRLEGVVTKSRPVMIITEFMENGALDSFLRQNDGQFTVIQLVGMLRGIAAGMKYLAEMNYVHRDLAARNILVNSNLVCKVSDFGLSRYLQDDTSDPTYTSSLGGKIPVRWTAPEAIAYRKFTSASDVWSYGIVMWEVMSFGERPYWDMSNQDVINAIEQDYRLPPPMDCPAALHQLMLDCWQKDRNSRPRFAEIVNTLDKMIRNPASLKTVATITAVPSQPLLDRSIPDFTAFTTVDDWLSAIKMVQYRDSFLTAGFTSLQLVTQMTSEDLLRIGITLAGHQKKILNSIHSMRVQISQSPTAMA
PROTOCOL TEXT: phosphorylation enrichment, bacterial display (enrichment ratio); higher = better substrate or ligand; peptides without Tyr show the background;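 also: 11-residue human phosphosite peptides and single-mutation variants displayed on the E. coli surface, counted by deep sequencing, each peptide's frequency after selection divided by its frequency in the unselected input library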;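 also: frequency after pTyr selection over input frequency; kinase dosed for 20-30% of maximal phosphorylation in three min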
Reported phosphorylation enrichment is given for each of the following sequences.
Respond numerically, and do not add a unit to the figure.

Known results for sequences:
| RESIDUES | READOUT NAME | EXPERIMENTAL VALUE |
| --- | --- | --- |
| NGQAVYAACQT [XDH_Y1092] | phosphorylation enrichment | 2.24 |
| VDTLWYKFLKR [EPM2A_Y86_F84L] | phosphorylation enrichment | 0.46 |
| YTHSDYQYSQR [PKP2_Y166] | phosphorylation enrichment | 0.479 |

Name the recorded phosphorylation enrichment of the sequence listed here: VSRGRYRPQEC [B4GALT4_Y113]
0.527

Name the recorded phosphorylation enrichment of the sequence listed here: MFCAGYDTKQE [F10_Y407]
0.81

Name the recorded phosphorylation enrichment of the sequence listed here: QSSALYEDRYL [ASS1_Y83]
3.12

Name the recorded phosphorylation enrichment of the sequence listed here: NTGDDYDLYGG [PTPN11_Y63_Y62D]
0.581

Name the recorded phosphorylation enrichment of the sequence listed here: PSQRRNVFFFS [PTEN_Y174_Y174N_YF]
0.559

Name the recorded phosphorylation enrichment of the sequence listed here: QYPDVYAREEV [CRX_Y67]
1.57

Name the recorded phosphorylation enrichment of the sequence listed here: DDSNLYINVKL [MTHFD1_Y52]
0.777
